tested on: HCC 2998; test: NCI tumour cell line growth inhibition, 48 h
Activity calls are given as the source filed them. Rule as the data show it: active = GI50 up to about 1.1 µM and inactive = higher.
This section presents compounds with their documented GI50 values.

Observe how each entry below is paired with its result.
compound=COc1c2ccsc2c(OC)c2ccsc12 measured_metric=GI50 value_observed="> 100 µM (inactive)"
compound="COC1(Cc2ccccc2)C(=O)c2ccccc2N1C(C)=O (stereo not drawn)" measured_metric=GI50 value_observed="> 100 µM (inactive)"
compound="CCOC(=O)C1C(=O)CC(O)(c2ccccc2)C(C(=O)OCC)C1c1ccc(OC)cc1 (stereo not drawn)" measured_metric=GI50 value_observed="37.9 µM (inactive)"
compound=CO/C=C(/C(=O)OC)c1ccccc1Oc1c(F)c(F)c(F)c(F)c1F measured_metric=GI50 value_observed="36.7 µM (inactive)"
compound=COc1ccccc1/N=N/C(=N/NC(=O)c1ccc(C)cc1)c1ccc(N(CCC#N)CCC#N)cc1OC measured_metric=GI50 value_observed="34.2 µM (inactive)"

Tell me its GI50 on HCC 2998: `O=C1c2cccnc2C(=O)c2c1nc1ccccc1c2-c1ccc2c3c(nc4ccccc42)C(=O)c2cccnc2-c13`
1.59 µM (inactive)

Enter recorded GI50 with HCC 2998 for CC(=O)NC1C(OCc2ccccc2)OC(CO)C(O)C1OCC(=O)N[C@@H](C)C(=O)N[C@H](CCC(=O)NCCNCCNc1c2ccccc2nc2cccc([N+](=O)[O-])c12)C(N)=O (stereo partly drawn) here.
6.52 µM (inactive)

Provide measured GI50 on HCC 2998 for CC(=O)C(CN(C)C)C(c1ccccc1)c1c(O)c2ccccc2oc1=O (stereo not drawn) please.
> 100 µM (inactive)

* * *

test system: DMS-273; test: NCI tumour cell line growth inhibition, 48 h
Activity calls are given as the source filed them. No stated cut-off is given here; in the data, active = GI50 up to about 1.1 µM and inactive = higher. Where a SMILES comes first, the peptide text is derived from it. [ ]: non-standard residue; d: D form. Phe(4-Cl) = N[CH](Cc1ccc(Cl)cc1)C(=O)O
measured.metric: GI50

Some entries whose results are on file:
compound=Cn1cc2c(n1)c(N/N=C/c1ccccc1)nn1nnnc21 value_observed="> 100 µM (inactive)"
compound="CC(=O)C(CN(C)C)C(c1ccccc1)c1c(O)c2ccccc2oc1=O (stereo not drawn)" value_observed="> 100 µM (inactive)"
compound=CC#N.O[C@@H]1CCCC[C@@H]1O.O[C@@H]1CCCC[C@@H]1O.[TeH2] value_observed="19.6 µM (inactive)"

Return GI50 for the following compound: CCc1cccc(CC)c1NC(=O)C(C#N)C1=C(Cl)C(=O)c2ccccc2C1=O (stereo not drawn)
17.9 µM (inactive)

Output measured GI50 for this item: CC12CCc3ccccc3C1=NNC(=O)C2 (stereo not drawn)
> 100 µM (inactive)

Annotate the compound CC(O)C(NC(=O)C(Cc1ccccc1)NC(=O)C(NC(=O)C(CCCCN)NC(=O)C(Cc1c[nH]c2ccccc12)NC(=O)C(Cc1ccc(O)cc1)NC(=O)C(Cc1ccc(Cl)cc1)NC(=O)C(N)Cc1ccccc1)C(C)O)C(N)=O (stereo not drawn) (H-F[Phe(4-Cl)]YWKTFT-NH2; configuration not given here) with its measured GI50.
33 µM (inactive)

Let me know recorded GI50 for O=C(Cc1ccccc1)NN1C(=O)C(Cl)C1c1ccc(Cl)cc1 (stereo not drawn) , thanks.
> 100 µM (inactive)

Provide GI50 value for the following compound: COC(=O)/C=C1\CCC2[C@@H](C(=O)CC3[C@]2(C)CCC[C@@]3(C)C(=O)OC)C1C (stereo partly drawn)
22 µM (inactive)

Answer with the recorded GI50 for the compound listed here: COC(=N)c1csc(C2OC(CO)C(O)C2O)n1 (stereo not drawn)
> 100 µM (inactive)

Please indicate GI50 recorded for `CS(=O)(=O)NNS(=O)(=O)c1ccc(Cl)cc1`
> 100 µM (inactive)
